TGI overview
test system: IGROV1 ovarian; experiment: NCI tumour cell line growth inhibition, 48 h
Just the number in µM, nothing appended.

{"columns": ["COMPOUND", "TESTED_TARGET", "TGI, µM"],
 "data": [
  ["CN(C)[C@@H]1C(=O)C(C(=O)NCN2CCN(C(=N)N=C(N)N)CC2)=C(O)[C@@]2(O)C(=O)C3=C(O)c4c(O)cccc4[C@@](C)(O)[C@H]3C[C@@H]12", "IGROV1 ovarian", 22],
  ["CCN(CC)c1c(C(=O)/C=C/c2ccc(F)cc2)c(-c2ccccc2)nn(C)c1=O", "IGROV1 ovarian", 21.9],
  ["CCOc1ccc(C2Oc3c(cccc3OC)C=C2[N+](=O)[O-])cc1OCC (centres undefined)", "IGROV1 ovarian", 11.1]
]}

// below: TGI requested for another compound
Q) Would you mind telling me what TGI value was observed for COc1ccc2c(c1OC)C(=O)OC2C1c2c(c(N)c3c(c2OC)OCO3)CCN1C (centres undefined) ?
A) 6.68

====

system: HL-60(TB) leukemia; assay: NCI tumour cell line growth inhibition, 48 h
REPORTED_PROPERTY: log10 TGI (log10 of the value in µM)
Hi team, quick reminder: these entries are log10 of TGI (µM).

Worked examples, 9 molecules total:
{"columns": ["MOLECULE", "TESTED_TARGET", "ENDPOINT_VALUE"],
 "data": [
  ["Cc1ccc2c(/C=C/c3ccc(N(C)C)cc3)ccnc2c1C", "HL-60(TB) leukemia", 1.91],
  ["CCOc1ccccc1C(=O)/C=C/c1cc2ccccc2[nH]c1=O", "HL-60(TB) leukemia", -1.23],
  ["CCCCS/C(=C(/C#N)C(N)=O)c1cc2c([nH]1)CCCC2", "HL-60(TB) leukemia", 1.06],
  ["O=C1/C(=C/c2ccc(Cl)cc2)N=C(c2ccccc2)N1c1nc2ccc(Sc3ccccc3)cc2[nH]1", "HL-60(TB) leukemia", 1.55],
  ["COC(=O)N[C@H]1C=C[C@@H]2/C=C(C)/C=C/[C@@H](C)[C@H]([C@H](C)[C@H](O)[C@@H](C)NC(C)=O)OC(=O)/C=C/C=C(C)\\C=C\\[C@]2(C)C1", "HL-60(TB) leukemia", 1.29],
  ["Cc1ccc(I)cc1N=C=S", "HL-60(TB) leukemia", 1.65],
  ["NC(=O)/C(=N\\NC(=O)c1cc2ccccc2cc1O)C1C(=O)N(c2ccccc2)N=C1N (stereo not given)", "HL-60(TB) leukemia", 1.67],
  ["COC(=O)[C@]1(C)CCC[C@]2(C)C3CC4OOC3(C=C4C(C)(C)O)CCC21 (stereo not given in full)", "HL-60(TB) leukemia", 1.51],
  ["C=C(C)[C@@H]1CC[C@]2(C(N)=O)CC[C@]3(C)[C@H](CC[C@@H]4[C@@]5(C)C/C(=C/c6cccnc6)C(=O)C(C)(C)[C@@H]5CC[C@]43C)[C@@H]12", "HL-60(TB) leukemia", 1.14]
]}

// below: log10 TGI requested for another molecule
Q) Would you mind telling me what log10 TGI value was observed for CCCCCCCCn1ccc2cc(NC(=O)Cn3cc(CN4CCN(CC)CC4)nn3)ccc21 ?
A) 0.62

====

system: A549 NSCLC; experiment: NCI tumour cell line growth inhibition, 48 h; in the data active = GI50 below about 0.43 µM; inactive = the rest
Would you mind answering with one of these outcomes? y = active, n = inactive

Q) // outcome(item) with item = CCNCCNc1cc(-c2ccc(Cl)c(Cl)c2)c(C#N)c2nc3ccccc3n12
A) n

====

test system: HOP-62 NSCLC; test: NCI tumour cell line growth inhibition, 48 h
REPORTED_PROPERTY: TGI

{"columns": ["COMPOUND", "ENDPOINT_VALUE"],
 "data": [
  ["CN1CCC(CN2c3ccccc3Sc3ccccc32)C1 (stereo unspecified)", "28.5 µM"],
  ["CCCCCCCCn1ccc2cc(NC(=O)Cn3cc(CN4CCN(CC)CC4)nn3)ccc21", "3.33 µM"],
  ["O=C1OC(Cl)C(N=P(c2ccccc2)(c2ccccc2)c2ccccc2)=C1Cl (stereo unspecified)", "> 100 µM"]
]}

Q) Find TGI (HOP-62 NSCLC) for the entry CCOC(=O)c1ccc(C(=O)/C(C#N)=C2\CCCN2)n1C
A) > 100 µM

Q) Find TGI (HOP-62 NSCLC) for the entry O=C1NC(=NCc2c(Cl)cccc2Cl)S/C1=C\c1ccc2ncccc2c1
A) > 19.9 µM

Q) Find TGI (HOP-62 NSCLC) for the entry CCOC(=O)C1=C(C)N2CCOC2(C)C(C(=O)OC)C1c1cccc(Cl)c1 (stereo unspecified)
A) > 100 µM

====

tested on: DU-145 prostate; test: NCI tumour cell line growth inhibition, 48 h; in the data active means GI50 below about 0.43 µM; inactive means the rest
Would you mind answering with one of these outcomes? active, inactive

Examples with answers:
{"columns": ["COMPOUND", "CLASS_ASSIGNMENT"],
 "data": [
  ["COc1ccc(C(O)c2cc3c(N)c(C(=O)Nc4ccccc4)sc3nc2C)cc1 (stereo not given)", "active"],
  ["NS(=O)(=O)c1ccc(N=Nc2c(O)[nH]c3ccc(Cl)cc23)cc1", "inactive"],
  ["N=C(N)c1ccc(-c2ccc(-c3ccccc3)s2)s1", "active"]
]}

Q) // outcome(item) with item = CCCCCCCC/C(=C\C1=C(C)C(=O)C(OC)=C(OC)C1=O)C(=O)O
A) inactive

Q) // outcome(item) with item = C#CC#CC#CC#CC#CC#CC#CC#CC[C@@H]1OC[C@H](COC(=O)O[C@@H](C(=O)O[C@H]2C[C@@]3(O)[C@@H](OC(=O)c4ccccc4)[C@@H]4[C@]5(OC(C)=O)CO[C@@H]5C[C@H](O)[C@@]4(C)C(=O)[C@H](OC(C)=O)C(=C2C)C3(C)C)[C@@H](NC(=O)c2ccccc2)c2ccccc2)O1
A) inactive

Q) // outcome(item) with item = CC(=O)/C(=C\c1c(-c2ccccc2)[nH]c2ccccc12)S(C)(=O)=O
A) inactive

Q) // outcome(item) with item = CCCCCCCCCCCCCCCC(=O)Nc1ccn([C@@H]2O[C@H](CO)[C@@H](O)[C@@H]2C#N)c(=O)n1
A) inactive

Q) // outcome(item) with item = O=C1C=CC2(NN=C(c3ccccc3)N2c2ccccc2)c2cccc(O)c21 (stereo not given)
A) inactive

Q) // outcome(item) with item = CCC(C)CN=C(N)c1ccc(N2CCN(c3ccc(C(N)=NCC(C)CC)cc3)CC2)cc1 (stereo not given)
A) inactive

Q) // outcome(item) with item = COC(=O)c1ccc(C2SC(C)C(=O)N2NC(=O)C(O)c2ccccc2)cc1 (stereo not given)
A) inactive

====

system: SR leukemia; assay: NCI tumour cell line growth inhibition, 48 h
REPORTED_PROPERTY: TGI

{"columns": ["COMPOUND", "TESTED_TARGET", "TGI"],
 "data": [
  ["COc1ccc(CCc2nc3cc(-c4c(C)noc4C)ccc3n2CCN2CCOCC2)cc1", "SR leukemia", "> 100 µM"],
  ["CCOC(=O)C1C(c2ccc3c(c2)OCO3)c2c([nH][nH]c2=O)CC1(O)OCC (configuration not stated)", "SR leukemia", "> 100 µM"],
  ["CCCCNC(=O)OCCN=C1c2ccccc2C(Br)C(Br)c2ccccc21 (configuration not stated)", "SR leukemia", "> 100 µM"],
  ["Cc1cc(O)c(C=NC(=S)c2ccncc2)c(=O)o1", "SR leukemia", "> 100 µM"],
  ["COc1ccc(NC(=S)N/N=C(\\c2ccccc2)c2ccccn2)cc1", "SR leukemia", "5.57 µM"]
]}

Q) Would you mind telling me what TGI value was observed for [N-]=[N+]=Nc1ncnc2c1sc(=S)n2-c1ccccc1 ?
A) > 100 µM

Q) Would you mind telling me what TGI value was observed for O=S(=O)(Nc1nccs1)c1ccc(Nc2nc(-c3cccs3)nc3ccc(I)cc23)cc1 ?
A) 68.4 µM

Q) Would you mind telling me what TGI value was observed for NS(=O)(=O)c1ccc(N=Nc2c(O)[nH]c3ccc(Cl)cc23)cc1 ?
A) > 25 µM

====

test system: OVCAR-4 ovarian; test: NCI tumour cell line growth inhibition, 48 h
Where a SMILES comes first, the peptide text is derived from it.
REPORTED_PROPERTY: GI50

Worked examples, 5 compounds total:
{"columns": ["COMPOUND", "GI50"],
 "data": [
  ["COc1ccc(/C=C(/C(=O)N2CCCCC2)c2cc(OC)c(OC)c(OC)c2)cc1", "18 µM"],
  ["O=C1C=CC2(NN=C(c3ccccc3)N2c2ccccc2)c2cccc(O)c21 (configuration not stated)", "0.698 µM"],
  ["COc1cc2c(cc1OCCCCCN1CCN(CCCCCOc3cc4c(cc3OC)C(=O)C3CCC[C@H]3C=N4)CC1)N=C[C@@H]1CCCC1C2=O (some centres not stated)", "42 µM"],
  ["COc1ccc2c(c1OC)C(=O)OC2C1c2c(c(N)c3c(c2OC)OCO3)CCN1C (configuration not stated)", "5.33 µM"],
  ["CCC(C)C1NC(=O)C(CCCCN)NC(=O)C(CCCCN)NC(=O)C(CC(C)C)NC(=O)C(CCCCN)NC(=O)C(C(C)CC)NC(=O)C(C(C)C)NC(=O)C(C(C)CC)NC(=O)C(CCCCN)NC(=O)C(CCCCN)NC(=O)C(C)NC(=O)C(CCCCN)NC(=O)C(CC(C)C)NC1=O (configuration not stated) (cyclo(AKKIVIKLKKILK); configuration not given here)", "1.28 µM"]
]}

Q) Would you mind telling me what GI50 value was observed for COc1cc(-c2cc(-c3nc4ccc(F)cc4[nH]3)[nH]n2)cc(OC)c1OC ?
A) 1.29 µM

Q) Would you mind telling me what GI50 value was observed for COc1ccc(C(O)c2cc3c(N)c(C(=O)Nc4ccccc4)sc3nc2C)cc1 (configuration not stated) ?
A) 2.03 µM
